# Test system: ncRNAs (SEQ ID NO 28-89)
# experimentNotes: ncRNA arrays of melanocytes, keratinocytes, normal skin, melanoma cell lines and patient samples
# Set-up: species or system human
# conditionParameters: melanoma patient 10 sample compared to normal skin
# Lookup of reported ncRNA array expression, patient 10 keyed by entry

A selection of reference data follows.
substance	result
SEQ ID NO 64 (TTGCCTAGGAACAAAGAAGGCTTGTGAGGAGATCAAGGAACTTACATGAAATTGTAGGAA; listed as DNA, chemistry not given here; listed as Homo sapiens)	2.481
SEQ ID NO 82 (GAAGTCAGAAACTAAAGTTCCCTTCTAAGACAAAATCCTGCTTTGGAGAAAAAAAAAAAT; listed as DNA, chemistry not given here; listed as Homo sapiens)	−3.4499
SEQ ID NO 86 (AAAATTATTTTATCTTAAGTTTCCATTTAGTTGATTAAAAATAGGGTTATGAATGTTAAA; listed as DNA, chemistry not given here; listed as Homo sapiens)	1.097
SEQ ID NO 87 (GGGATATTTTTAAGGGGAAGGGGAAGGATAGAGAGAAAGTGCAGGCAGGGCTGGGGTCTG; listed as DNA, chemistry not given here; listed as Homo sapiens)	−1.881

Moving on to the next substance.
Given item SEQ ID NO 88 (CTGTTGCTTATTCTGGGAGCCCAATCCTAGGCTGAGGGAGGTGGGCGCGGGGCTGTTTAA; listed as DNA, chemistry not given here; listed as Homo sapiens) , the value recorded as its ncRNA array expression, patient 10 is −1.883

* * *

# Test system: ncRNAs (SEQ ID NO 28-89)
# experimentNotes: ncRNA arrays of melanocytes, keratinocytes, normal skin, melanoma cell lines and patient samples
# Set-up: species or system human
# conditionParameters: melanoma patient 28 sample compared to normal skin
readoutLabel: ncRNA array expression, patient 28
Answer with a number only.

Given item SEQ ID NO 31 (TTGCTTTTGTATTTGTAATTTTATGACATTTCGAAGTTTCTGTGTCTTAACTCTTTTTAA; listed as DNA, chemistry not given here; listed as Homo sapiens) , the value recorded as its ncRNA array expression, patient 28 is 2.25

Given item SEQ ID NO 54 (TTTTTTTTCTTGTCCTATTACAACATTTTATAACCTTATGAATCAATGGATACTTTTATT; listed as DNA, chemistry not given here; listed as Homo sapiens) , the value recorded as its ncRNA array expression, patient 28 is 1.501

Given item SEQ ID NO 82 (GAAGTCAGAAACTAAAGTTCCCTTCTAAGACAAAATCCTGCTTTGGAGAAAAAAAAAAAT; listed as DNA, chemistry not given here; listed as Homo sapiens) , the value recorded as its ncRNA array expression, patient 28 is −3.348

Given item SEQ ID NO 33 (TATTGAATGTACACAAGTAATGATGGAGTTTGATTATATGGTTCATTTTCATTTATCCTA; DNA, backbone and methylation of C not given here; listed as Homo sapiens) , the value recorded as its ncRNA array expression, patient 28 is 2.24

* * *

# Tested on: ncRNAs (SEQ ID NO 28-89)
# experimentNotes: ncRNA arrays of melanocytes, keratinocytes, normal skin, melanoma cell lines and patient samples
# Set-up: species or system human
# conditionParameters: melanoma patient 3 sample compared to normal skin
# Lookup of reported ncRNA array expression, patient 3 keyed by entry
Answer with a number only.

substance	recordedNumber
SEQ ID NO 61 (CATACATTGCCCTCACTAATCAATGGACATTTCAGCATTTCATTACTAATTTTGAGAGAA; listed as DNA, chemistry not given here; listed as Homo sapiens)	1.117
SEQ ID NO 79 (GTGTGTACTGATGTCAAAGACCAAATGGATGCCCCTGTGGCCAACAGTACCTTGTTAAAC; listed as DNA, chemistry not given here; listed as Homo sapiens)	1.324

Moving on to the next substance.
Given item SEQ ID NO 59 (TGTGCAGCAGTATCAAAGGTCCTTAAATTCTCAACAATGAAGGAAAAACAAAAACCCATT; listed as DNA, chemistry not given here; listed as Homo sapiens) , the value recorded as its ncRNA array expression, patient 3 is −1.02
